Assay: brain exposure after oral administration
Format: in vivo, male CD-1 mice
Conditions: male, CD-1, mouse, brain, po, 10 mg/kg, single PO dose 10 mg/kg (Group 1), 0.5 hr; read-out: Brain Concentrations, Group A, B, C
property: concentration at 0.5 h
Give your result as the value with the unit written after it.

Ask: Which concentration at 0.5 h is reported for this molecule? O=C(Cc1ccc(-c2ccc(OCCN3CCOCC3)cc2)cn1)NCc1ccccc1 [KX2-391]
Reply: 398 ng/g

---

Experiment: plasma exposure after oral administration
Format: in vivo, male CD-1 mice
Conditions: male, CD-1, mouse, plasma, po, 50 mg/kg, single PO dose 50 mg/kg (Group 2), 0.5 hr; read-out: Plasma Concentrations, Group A, B, C
property: concentration at 0.5 h (ng/mL)
Respond numerically; units are ng/mL and should not be typed.

Ask: Which concentration at 0.5 h is reported for this compound? O=C(Cc1ccc(-c2ccc(OCCN3CCOCC3)cc2)cn1)NCc1ccccc1 [KX2-391]
Reply: 8510

---

Assay: plasma exposure after oral administration
Format: in vivo, male CD-1 mice
Conditions: male, CD-1, mouse, plasma, po, 50 mg/kg, single PO dose 50 mg/kg (Group 2), 2 hr; read-out: Plasma Concentrations, Group A, B, C
property: concentration at 2 h (ng/mL)
Respond numerically; units are ng/mL and should not be typed.

Ask: Which concentration at 2 h is reported for this compound? `O=C(Cc1ccc(-c2ccc(OCCN3CCOCC3)cc2)cn1)NCc1ccccc1`
Reply: 1150

---

Assay: plasma exposure after oral administration
Assay type: in vivo, male CD-1 mice
Settings: male, CD-1, mouse, plasma, po, 50 mg/kg, single PO dose 50 mg/kg (Group 2), 0.5 hr; read-out: Plasma Concentrations, Mean
property: concentration at 0.5 h (ng/mL)
Respond numerically; units are ng/mL and should not be typed.

Ask: Which concentration at 0.5 h is reported for this compound? `O=C(Cc1ccc(-c2ccc(OCCN3CCOCC3)cc2)cn1)NCc1ccccc1`
Reply: 9720

---

Assay: plasma exposure after oral administration
Assay type: in vivo, male CD-1 mice
Settings: male, CD-1, mouse, plasma, po, 10 mg/kg, single PO dose 10 mg/kg (Group 1), 0.5 hr; read-out: Plasma Concentrations, Mean
property: concentration at 0.5 h
Give your result as the value with the unit written after it.

Ask: Which concentration at 0.5 h is reported for this compound? O=C(Cc1ccc(-c2ccc(OCCN3CCOCC3)cc2)cn1)NCc1ccccc1 [KX2-391]
Reply: 871 ng/mL

---

Test: brain exposure after oral administration
Type: in vivo, male CD-1 mice
Settings: male, CD-1, mouse, brain, po, 50 mg/kg, Male CD-1 mice, single PO dose 50 mg/kg (Group 4), 2 hr, Mean; read-out: KX2-391 Brain Concentrations, Mean
property: concentration at 2 hr

Ask: Which concentration at 2 hr is reported for this compound? `O=C(Cc1ccc(-c2ccc(OCCN3CCOCC3)cc2)cn1)NCc1ccccc1`
Reply: 758 ng/g

---

Experiment: brain exposure after oral administration
Type: in vivo, male CD-1 mice
Conditions: male, CD-1, mouse, brain, po, 50 mg/kg, Male CD-1 mice, single PO dose 50 mg/kg (Group 4), 2 hr, Group C; read-out: KX2-391 Brain Concentrations, Group C
Experimental: Plasma concentrations were measured in mice after oral administration. All doses were formulated in purified water. Four groups of male CD-1 mice were dosed after an overnight fast and fed 4 hours post-dose. Dosing was as follows: Protein was precipitated with 0.25 mL acetonitrile for plasma, 0.25 mL for brain. After centrifugation, supernatant was directly injected into an LC/MS system. The limit of quantitation was 1 ng/mL using a 50 μL aliquot for plasma and a 50 μL, aliquot for brain. […]
property: concentration at 2 hr (ng/g)
Respond numerically; units are ng/g and should not be typed.

Ask: Which concentration at 2 hr is reported for this compound? `O=C(Cc1ccc(-c2ccc(OCCN3CCOCC3)cc2)cn1)NCc1ccccc1`
Reply: 874
